system: rat models subjected to rib fracture; test: Effect of promoting fracture healing in rib fracture-induced rat model (callus volume, callus osteoid volume); format: in vivo, SD rats; settings: 200 mg/kg oral once a day for 2 weeks from day 2 of surgery; 8th and 9th ribs; vehicle control 37.22 ± 8.23
Marks after values point to notes of the source that are not given here.
Measured Changes on callus volume (mm^3) accompanies every entry in the list below.
Reported endpoint: Changes on callus volume (mm^3)

- Compound: "CC(C)c1nc(-c2ccc(OCCCCCOc3ccc(C(=N)NO)cc3)cc2)c(CC2CCCC2)s1 [Example 47]"
  Target desc: "rat models subjected to rib fracture"
  Reported endpoint: "Changes on callus volume (mm^3)"
  Result: "27.56 ± 6.94** mm^3"
- Compound: "CCCN(CCC)c1nc(-c2ccc(OCCCCCOc3ccc(C(=N)NO)cc3)cc2)c(CC)s1 [Example 138]"
  Target desc: "rat models subjected to rib fracture"
  Reported endpoint: "Changes on callus volume (mm^3)"
  Result: "27.34 ± 5.46* mm^3"
- Compound: "CNc1nc(-c2ccc(OCCCCCOc3ccc(C(=N)NO)cc3)cc2)c(CCCl)s1 [Example 115]"
  Target desc: "rat models subjected to rib fracture"
  Reported endpoint: "Changes on callus volume (mm^3)"
  Result: "24.06 ± 9.64* mm^3"
- Compound: "Cc1sc(-c2cccnc2)nc1-c1ccc(OCCCCCOc2ccc(C(=N)NO)cc2)cc1 [Example 13]"
  Target desc: "rat models subjected to rib fracture"
  Reported endpoint: "Changes on callus volume (mm^3)"
  Result: "23.15 ± 7.85* mm^3"

====

tested on: osteoclast differentiation; assay: Inhibitory effects on osteoclast differentiation (co-culture of bone marrow cells with osteoblast, TRAP staining); assay type: cell-based, mice; settings: Mus musculus, Osteoclast, 168 h; 1 m; co-culture of bone marrow cells and osteoblast, 7 days, TRAP-positive osteoclasts versus controls; read-out: % inhibitory activity on osteoclastogenesis
Measured inhibition at 1 µM accompanies every entry in the list below.

- Given smiles: "Cc1nc(-c2ccc(OCC=CCOc3ccc(C(=N)NO)cc3)cc2)c(C(C)C)s1"
  inhibition at 1 µM [%]: 74.5
- Given smiles: "Cc1sc(NC(=O)C(C)C)nc1-c1ccc(OCCCCCOc2ccc(C(=N)NO)cc2)cc1"
  inhibition at 1 µM [%]: 99.6
- Given smiles: "COCc1sc(C)nc1-c1ccc(OCCCCCOc2ccc(C(=N)NO)cc2)cc1"
  inhibition at 1 µM [%]: 99
- Given smiles: "CNc1nc(-c2ccc(OCCCCCOc3ccc(C(=N)NO)cc3)cc2)c(CC2CCCC2)s1"
  inhibition at 1 µM [%]: 80.5

====

System: cells
Experiment: Cytotoxicity test (MTT)
Format: cell-based
Details: MC3T3-E1 cells, 10^−6M, 72 hrs, compared with the control group
Description: Cytotoxic effect of benzamidine derivatives was evaluated by the experiment described below. The test substance was diluted in appropriate solvent at 10^−2M concentration. […] Cells to be used in cytotoxitic test were plated on a 96-well microplate in a dose of 1×10^4 cell/100 μL per well and cultured for 72 hrs. […] Lastly, the absorbance of developed plates was measured at 540 nm.
// returns Criterion not met unless Survival rates of the cells is strictly below 80%, in which case Criterion met

- Compound: "CCCCc1sc(N)nc1-c1ccc(OCCCCCOc2ccc(C(=N)NO)cc2)cc1 [Example 63]"
  Target desc: "cells"
  Answer label: "Criterion met"
- Compound: "CCCCCc1nc(-c2ccc(OCCCCCOc3ccc(C(=N)NO)cc3)cc2)c(CC2CCCC2)s1 [Example 51]"
  Target desc: "cells"
  Answer label: "Criterion not met"
- Compound: "CCCCc1sc(C2CCCCC2)nc1-c1ccc(OCCCCCOc2ccc(C(=N)NO)cc2)cc1 [Example 35]"
  Target desc: "cells"
  Answer label: "Criterion met"
- Compound: "CCc1sc(N2CCCCC2)nc1-c1ccc(OCCCCCOc2ccc(C(=N)NO)cc2)cc1 [Example 166]"
  Target desc: "cells"
  Answer label: "Criterion met"
- Compound: "N=C(NO)c1ccc(OCCCCCOc2ccc(-c3nc(-c4cccnc4)sc3Cc3ccccc3)cc2)cc1 [Example 41]"
  Target desc: "cells"
  Answer label: "Criterion not met"
- Compound: "Cc1sc(C(C)(C)C)nc1-c1ccc(OCCCCCOc2ccc(C(=N)NO)cc2)cc1 [Example 16]"
  Target desc: "cells"
  Answer label: "Criterion met"

This collection of values is drawn from patent US8178688B2.
